Cited source: the supplement of paper PMC10126150

Provide the recorded switch fluorescence ratio for the entries that follow.
# System: ATP;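 also: ATP exposure 15 min at 22 °C before imaging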
# TEST SUMMARY: switch fluorescence ratio, 500 uM ATP over buffer (Cy3 cluster intensity, sum of 5 cycles each) (fold (ratio)); higher = stronger signal-on switching upon ATP binding; sequences stand for … in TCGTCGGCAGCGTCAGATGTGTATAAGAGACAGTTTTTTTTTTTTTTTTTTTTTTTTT…TC
# RUN CONDITIONS: aptamer strand: ATP DNA aptamer (quencher-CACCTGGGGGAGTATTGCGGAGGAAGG + anchor), 100 nM annealed; ATP concentration: 500 uM
# respond with the number and nothing more

Task item: Item TGTAAGAAAA has what recorded switch fluorescence ratio?
Reply: 0.985

Task item: Further, for ATTAGTACTT ?
Reply: 0.987

Task item: AGGTATGGAG , same question.
Reply: 0.981

Task item: Here is the next sequence: ATTTTGCCGT
Reply: 1.02

Task item: Could you do the same for GGTTGGAATT , please?
Reply: 1.01

Task item: Okay, and GACACTTGTA ?
Reply: 1.02

Task item: What about GGTGTTCTGA ?
Reply: 1.01

Task item: Next sequence: AATGTTATAT
Reply: 1.01

Task item: Then what about the sequence GGGGAAAACT ?
Reply: 1.01

Task item: Now this one: GCGTCGGGCA
Reply: 0.997

Task item: Also check TAGGATGCAC
Reply: 1.01

Task item: What do we get for AGATGGATAA ?
Reply: 0.99

Task item: And GAATTCAAGG ?
Reply: 1.01

Task item: Try this sequence next: CGGTGCTTTT
Reply: 1

Task item: Could you do the same for ATAGCTTGGC , please?
Reply: 1.01

Task item: What about this sequence? GAGAATAGAG
Reply: 0.989

---

# Tested on: ATP;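 also: ATP exposure 15 min at 22 °C before imaging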
# TEST SUMMARY: switch fluorescence ratio, 500 uM ATP over buffer (Cy3 cluster intensity, sum of 5 cycles each) (fold (ratio)); higher = stronger signal-on switching upon ATP binding; sequences stand for … in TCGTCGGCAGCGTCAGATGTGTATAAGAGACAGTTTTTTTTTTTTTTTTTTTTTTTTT…TC
# RUN CONDITIONS: aptamer strand: ATP DNA aptamer (quencher-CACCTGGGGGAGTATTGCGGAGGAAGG + anchor), 100 nM annealed; ATP concentration: 500 uM
READOUT: switch fluorescence ratio
Please give only the number in your answer, with no unit.

Task item: What value of switch fluorescence ratio has been recorded for this entry: GTTATTCTCT
Reply: 0.971

Task item: Next record, please: CTCTCAAATG
Reply: 1.03

Task item: Same thing, different sequence: CTTAGTAATG
Reply: 1.05

Task item: What do you get for TTTGCTACTG ?
Reply: 1.05

Task item: Further, for TTAGAAAGGA ?
Reply: 1.01

Task item: Now the same for CAATAGATGG
Reply: 0.999

Task item: Ok, now GTTGTACGAA
Reply: 1.19

Task item: // same read-out, input: GCGATATAGT
Reply: 1.03

Task item: And then TTAGGGTTGG , what is it?
Reply: 0.99

Task item: One more sequence: ATTACAAAAA
Reply: 1.01

Task item: What about CAACTGCAGC ?
Reply: 1.26

Task item: What do we get for CAAAGGGCAA ?
Reply: 1.11

Task item: # iterate: GCTCTAGTTT
Reply: 1.02

Task item: Also check TTTGTTTTAC
Reply: 1.18

Task item: What about this sequence? GGCCTGGTTT
Reply: 1.03

Task item: Also need TGAGTTTTGG , thanks.
Reply: 1.02
